Values were extracted from patent US20250051338A1.

target: TYK2 (Homo sapiens, UniProt P29597); assay: TYK2 degradation MSD assay in OCI-LY10 cells; format: cell-based; set-up: endogenous in cells; host or cells: EBV-B cells; conditions: 4 to 24 hours incubation, read-out: TYK2 MSD DC50 rating in OCI-LY10
Sequence (P29597 whole entry): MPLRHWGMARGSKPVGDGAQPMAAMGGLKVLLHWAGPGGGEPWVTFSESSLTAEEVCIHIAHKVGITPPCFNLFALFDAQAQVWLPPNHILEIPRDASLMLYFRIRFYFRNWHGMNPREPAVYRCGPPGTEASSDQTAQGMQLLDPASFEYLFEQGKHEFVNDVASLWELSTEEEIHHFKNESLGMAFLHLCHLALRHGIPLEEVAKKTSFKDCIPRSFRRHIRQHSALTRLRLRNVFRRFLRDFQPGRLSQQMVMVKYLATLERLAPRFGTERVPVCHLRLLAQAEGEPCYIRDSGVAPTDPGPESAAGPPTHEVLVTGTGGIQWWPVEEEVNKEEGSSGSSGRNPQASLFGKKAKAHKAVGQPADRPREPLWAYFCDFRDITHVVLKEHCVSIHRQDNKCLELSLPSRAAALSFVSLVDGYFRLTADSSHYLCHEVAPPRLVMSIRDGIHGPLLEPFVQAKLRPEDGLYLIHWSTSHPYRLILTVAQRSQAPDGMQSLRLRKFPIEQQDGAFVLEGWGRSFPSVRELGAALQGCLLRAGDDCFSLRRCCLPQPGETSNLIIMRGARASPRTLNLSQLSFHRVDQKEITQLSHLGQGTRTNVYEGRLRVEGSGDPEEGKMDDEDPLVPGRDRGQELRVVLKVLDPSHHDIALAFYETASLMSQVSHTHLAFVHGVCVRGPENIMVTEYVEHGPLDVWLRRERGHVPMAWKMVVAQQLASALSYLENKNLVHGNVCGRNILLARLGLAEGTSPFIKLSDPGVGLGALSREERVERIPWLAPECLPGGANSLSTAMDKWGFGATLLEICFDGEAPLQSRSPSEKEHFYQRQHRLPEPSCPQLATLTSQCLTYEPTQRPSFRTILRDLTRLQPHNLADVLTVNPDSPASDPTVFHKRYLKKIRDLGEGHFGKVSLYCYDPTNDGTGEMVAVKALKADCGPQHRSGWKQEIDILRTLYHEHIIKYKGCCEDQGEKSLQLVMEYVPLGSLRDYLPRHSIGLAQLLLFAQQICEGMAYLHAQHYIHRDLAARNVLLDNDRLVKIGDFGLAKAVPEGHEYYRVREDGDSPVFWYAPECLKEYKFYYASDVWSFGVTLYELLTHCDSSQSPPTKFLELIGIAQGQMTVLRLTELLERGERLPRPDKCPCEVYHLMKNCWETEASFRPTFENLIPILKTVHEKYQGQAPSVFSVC
Listing of recorded DC50 by entry.
experimental endpoint: DC50

compound	result
CNc1cc(N2CCc3c(-c4ccc(C(=O)N5CCN([C@H]6CC[C@H](c7ccc(-c8ccc9c(c8)n(C)c(=O)n9C8CCC(=O)NC8=O)cc7)CC6)CC5)cn4)cccc32)nn2c(C(=O)N[C@@H]3C[C@@H]3F)cnc12 (some centres unmarked)	1 to 10 nM
CNc1cc(Nc2cccn(C3CCN(C(=O)NCCCCc4ccc5c(c4)n(C)c(=O)n5C4CCC(=O)NC4=O)CC3)c2=O)nc2c(C(=O)N[C@@H]3C[C@@H]3F)cnn12 (some centres unmarked)	> 100 nM
CNc1cc(Nc2cccc(-c3ccc(CN4CCN(CC#Cc5cccc6c5n(C)c(=O)n6C5CCC(=O)NC5=O)CC4)cn3)c2)nn2c(C(=O)N[C@@H]3C[C@@H]3F)cnc12 (some centres unmarked)	< 1 nM
CNc1cc(N2CCc3c(C4CCN(CC5CCN(c6ccc(-c7ccc8c(c7)n(C)c(=O)n8C7CCC(=O)NC7=O)cc6)CC5)CC4)cccc32)nn2c(C(=O)N[C@@H]3C[C@@H]3F)cnc12 (mixture of isomers)	< 1 nM
CNc1cc(Nc2cccn(-c3ccc(C(=O)N4CCC5(CC4)CC(Cc4ccc6c(c4)n(C)c(=O)n6C4CCC(=O)NC4=O)C5)cn3)c2=O)nn2c(C(=O)N[C@@H]3C[C@@H]3F)cnc12 (some centres unmarked)	> 100 nM
